Reported growth by item:
- Tested on: MDA-MB-231 breast
- MEASUREMENT_PROTOCOL: NCI-60 one-dose screen, 48 h (100 = growth as untreated, 0 = no growth, -100 = all killed)
- SETTINGS: 10 µM unless noted
Compounds without any hit were thinned out: in the full panel of roughly 83,000, 20% have a hit.

{"columns": ["MOLECULE", "growth, %"],
 "data": [
  ["O=C(Nc1ccc(-c2nc(-c3cccc(OCCN4CCOCC4)c3)c(-c3ccnc(Br)c3)[nH]2)cc1)c1ccccc1", 29.2],
  ["NC(=O)C1(Nc2ccc(Br)cc2)CCCC1", 101],
  ["Cc1cccc(NCc2cn(-c3ccc(C(=O)O)cc3)nc2-c2ccc(C(=O)O)cc2)n1", 95.2],
  ["CN(C)CCN1CCN(c2ncccc2C2Nc3ccccc3-n3cccc32)CC1 (stereo not given)", 93.6],
  ["COc1ccc(-c2[nH]ncc2-c2cc3c(c(OC)c2)OCC(=O)N3)cc1", 7.86],
  ["CN(C(=O)NCc1cccc(F)c1Cl)[C@H](COC(=O)Nc1cc2ccccc2cn1)CC(O)CO (stereo not given in full)", 46.8],
  ["O=C(Cc1ccc(F)c(Cl)c1)Nc1cc(C2(C(F)(F)F)CC2)nn1CC1CCCCC1", -60.3],
  ["COc1cc(-c2nc3sccn3c2-c2ccnc(NCCCNS(=O)(=O)c3ccc(F)cc3)n2)ccc1F", 86.1],
  ["c1ccc2c(-c3nc(-c4c[nH]c5ccncc45)cs3)c[nH]c2c1", 12.7],
  ["Nc1nc(Cl)cc(=O)n1Cc1ccccc1", 92]
]}

----------
- Test system: UACC-62 melanoma
- MEASUREMENT_PROTOCOL: NCI-60 one-dose screen, 48 h (100 = growth as untreated, 0 = no growth, -100 = all killed)
- SETTINGS: 10 µM unless noted
Compounds without any hit were thinned out: in the full panel of roughly 83,000, 20% have a hit.
Threshold 30%: growth strictly smaller gives yes (1), otherwise no (0).

{"columns": ["COMPOUND", "STUDY_SYSTEM", "CLASS_ASSIGNMENT"],
 "data": [
  ["Cc1ccc(C(=O)N/N=C/c2cccc(Oc3ccccc3)c2)cn1", "UACC-62 melanoma", "no (0)"],
  ["O=C1CN(CCN2CC(=O)N(Cc3ccccc3)C(=O)C2)CC(=O)N1Cc1ccccc1", "UACC-62 melanoma", "no (0)"],
  ["CCN(CC)CCNc1nc2ccccc2c2c(=O)c3cc(Cl)ccc3sc12", "UACC-62 melanoma", "no (0)"],
  ["O=C(O)CCC(=O)Nc1nnc(-c2ccccc2)s1", "UACC-62 melanoma", "no (0)"],
  ["COc1cc(C)c(Cc2cnc(N)nc2N)cc1OC", "UACC-62 melanoma", "no (0)"],
  ["CCc1ccc(Oc2c(-c3ccc(OCc4ccc(Cl)cc4)cc3O)n[nH]c2C(F)(F)F)cc1", "UACC-62 melanoma", "yes (1)"],
  ["CCCCn1c(=O)c(-c2cc(-c3ccc(Cl)cc3)nc(-c3ccc(Cl)cc3)c2)cc2ccc(Cl)cc21", "UACC-62 melanoma", "no (0)"],
  ["CCOC(=O)c1cn2ncnc(Oc3ccc(NC(=O)NCCN(CC)CC)c(Cl)c3)c2c1C", "UACC-62 melanoma", "yes (1)"],
  ["C=C1C(=O)O[C@H]2[C@H]1CC/C(COC(=O)NCCOCCOCC(=O)Nc1ccc(OC)c(C(N)=O)c1O)=C\\CC[C@@]1(C)O[C@@H]21", "UACC-62 melanoma", "no (0)"],
  ["N#Cc1c(-c2ccccc2)nc(SCC(=O)Nc2nc(-c3ccc(Cl)cc3)cs2)[nH]c1=O", "UACC-62 melanoma", "no (0)"],
  ["NCCCNc1nc2ccccc2c2c(=O)c3cc(OC(F)(F)F)ccc3sc12", "UACC-62 melanoma", "no (0)"],
  ["NS(=O)(=O)c1ccc(-n2nc(C(=O)N/N=C\\c3ccc(F)cc3)cc2-c2ccc(Br)cc2)cc1", "UACC-62 melanoma", "no (0)"],
  ["COc1ccc(C(=O)N=Nc2c(O)n(C)c3ccccc23)cc1", "UACC-62 melanoma", "no (0)"],
  ["COc1ccc2c(c1)nc(NNC(=O)c1cnccn1)c1cccn12", "UACC-62 melanoma", "yes (1)"],
  ["COc1ccc(S(=O)(=O)n2c3ccccc3n3ncc(-c4nnc(C)o4)c23)cc1", "UACC-62 melanoma", "yes (1)"],
  ["CNCCCNc1nc2ccccc2c2c(=O)c3cc(F)ccc3sc12", "UACC-62 melanoma", "yes (1)"],
  ["N#Cc1cccc(NC(=O)c2cc(-c3ccc(F)cc3F)ccc2O)c1", "UACC-62 melanoma", "yes (1)"],
  ["Cc1cccc2c3c(sc12)C(c1ccc(Cl)cc1)C(C#N)=C(/N=C/c1ccc(Cl)cc1)O3 (stereo not given)", "UACC-62 melanoma", "yes (1)"]
]}
